- Tested on: NUAK1 (human)
- Assay procedure: radiometric filter-binding kinase assay, Kinase HotSpot
- Assay context: compound 0.5 µM; ATP 10 µM
Readout: residual activity (%)
Numbers only here, please. The scale is %.

>>> observed_result("O=C1NC(=O)c2c1c1c3ccccc3[nH]c1c1[nH]c3cc(Br)ccc3c21")
14.3
>>> observed_result("COc1cccc(-c2cc(=O)c3ccccc3o2)c1N")
98.1
>>> observed_result("O=c1c(-c2ccc(F)cc2)c(-c2ccncc2)[nH]n1-c1ccc(Cl)cc1")
89.1

Please find the next molecule below.
Recorded residual activity for `N#C/C(=C1/Nc2ccccc2S1)c1ccnc(NCCc2cccnc2)n1` , please? 91.8
